# tested_target: Glucose-6-phosphate 1-dehydrogenase (Homo sapiens, UniProt P11413)
# Sequence (P11413 whole entry): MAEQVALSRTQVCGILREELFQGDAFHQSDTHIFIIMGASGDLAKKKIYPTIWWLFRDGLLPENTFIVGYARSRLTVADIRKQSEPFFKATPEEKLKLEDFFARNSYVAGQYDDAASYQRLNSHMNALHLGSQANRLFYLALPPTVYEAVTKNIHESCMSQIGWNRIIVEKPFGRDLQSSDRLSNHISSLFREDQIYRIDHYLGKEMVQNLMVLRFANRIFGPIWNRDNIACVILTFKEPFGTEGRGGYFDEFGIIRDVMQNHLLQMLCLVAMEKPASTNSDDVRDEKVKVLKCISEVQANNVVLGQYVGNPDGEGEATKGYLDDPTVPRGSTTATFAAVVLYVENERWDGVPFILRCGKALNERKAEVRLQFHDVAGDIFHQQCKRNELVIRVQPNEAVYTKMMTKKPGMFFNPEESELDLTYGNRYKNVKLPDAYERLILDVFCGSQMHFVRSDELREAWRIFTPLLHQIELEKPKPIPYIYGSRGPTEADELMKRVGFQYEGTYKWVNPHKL
# test_protocol: inhibition of Homo sapiens G6PD, dose series – biochemical, fluorescence, selectivity assay for P. falciparum G6PD inhibitor project, dose response (AID 504792)
# Type: functional
Calls of active or inactive are those of the source.
property_label: IC50

The cases that follow already have their IC50 on record.
CC1(OC(=O)C2CCCC2)C(=O)C=C2C=C(c3ccsc3)N(Cc3ccc4c(c3)OCO4)C=C2C1=O (stereo not given): > 80 µM (inactive)
COc1cc(/N=c2\ssnc2Cl)cc(OC)c1OC: 69.4 µM (inactive)
C=CCc1ccccc1OCC(=O)N/N=C/c1ccccc1OCC: > 80 µM (inactive)
O=C(CCC(=O)OCC(=O)c1ccc([N+](=O)[O-])cc1)Nc1ccccc1Cl: > 80 µM (inactive)

Data request, read-out IC50, for CCOC(=O)c1ccc(-n2c(N)c(C(=O)NCC3CCCO3)sc2=S)cc1 (stereo not given) > 80 µM (inactive)

* * *

# tested_target: Zinc finger protein mex-5 (Caenorhabditis elegans, UniProt Q9XUB2)
# Sequence (Q9XUB2 whole entry): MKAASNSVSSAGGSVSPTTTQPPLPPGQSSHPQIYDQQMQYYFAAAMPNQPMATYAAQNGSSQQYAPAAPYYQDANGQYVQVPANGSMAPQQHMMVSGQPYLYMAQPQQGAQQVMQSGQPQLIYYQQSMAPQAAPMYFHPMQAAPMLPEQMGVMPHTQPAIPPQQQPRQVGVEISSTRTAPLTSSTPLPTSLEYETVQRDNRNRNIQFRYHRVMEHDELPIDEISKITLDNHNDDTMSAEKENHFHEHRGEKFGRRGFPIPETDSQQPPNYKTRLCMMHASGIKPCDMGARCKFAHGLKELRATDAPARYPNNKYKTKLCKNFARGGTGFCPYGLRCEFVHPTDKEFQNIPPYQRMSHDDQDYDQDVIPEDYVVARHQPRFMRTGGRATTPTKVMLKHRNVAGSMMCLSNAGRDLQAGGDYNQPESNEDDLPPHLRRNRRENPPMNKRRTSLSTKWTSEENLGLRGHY
# test_protocol: potency of MEX-5 RNA-binding blockers – biochemical, C. elegans, fluorescence polarization, dose response (AID 1960)
Activity calls are given as the source filed them.
property_label: EC50

Recorded EC50, per entry:
CC(=O)Nc1ccc(S(=O)(=O)NCc2nc(-c3cccc(C)c3)no2)cc1: > 300 µM (not active)
Oc1c(Br)cc(Br)c(/C=N/n2c(S)nnc2-c2ccccc2)c1Br: 5.63 µM (active)
Cc1c(Cl)cccc1N1C(=O)NC(=O)/C(=C\c2cc(C)n(-c3cccc(C(=O)O)c3C)c2C)C1=O: > 300 µM (not active)

// returns reported EC50 for input `C=CCN1C(=O)S/C(=C\c2ccc(N3CCOCC3)cc2C)C1=O` 61.3 µM (inconclusive)

Same again, this time with `CC(C)(C)c1nn(-c2ccccc2)c2[nH]c(=O)c(CNCc3ccco3)cc12` > 300 µM (not active)

Would you kindly repeat that for `CN1C(=O)/C(=C\c2ccc(N(C)C)cc2)OC1=S` ? > 300 µM (inconclusive)

Next record, please: Cc1cc2c3c(c1)C1(C(=O)N3C(C)(C)CC2C)C(C#N)=C(N)OC2=C1C(=O)CC(C)(C)C2 (stereo not given) > 300 µM (not active)

* * *

# tested_target: Rac GTPase-activating protein 1 (Homo sapiens, UniProt Q9H0H5)
# Sequence (Q9H0H5 whole entry): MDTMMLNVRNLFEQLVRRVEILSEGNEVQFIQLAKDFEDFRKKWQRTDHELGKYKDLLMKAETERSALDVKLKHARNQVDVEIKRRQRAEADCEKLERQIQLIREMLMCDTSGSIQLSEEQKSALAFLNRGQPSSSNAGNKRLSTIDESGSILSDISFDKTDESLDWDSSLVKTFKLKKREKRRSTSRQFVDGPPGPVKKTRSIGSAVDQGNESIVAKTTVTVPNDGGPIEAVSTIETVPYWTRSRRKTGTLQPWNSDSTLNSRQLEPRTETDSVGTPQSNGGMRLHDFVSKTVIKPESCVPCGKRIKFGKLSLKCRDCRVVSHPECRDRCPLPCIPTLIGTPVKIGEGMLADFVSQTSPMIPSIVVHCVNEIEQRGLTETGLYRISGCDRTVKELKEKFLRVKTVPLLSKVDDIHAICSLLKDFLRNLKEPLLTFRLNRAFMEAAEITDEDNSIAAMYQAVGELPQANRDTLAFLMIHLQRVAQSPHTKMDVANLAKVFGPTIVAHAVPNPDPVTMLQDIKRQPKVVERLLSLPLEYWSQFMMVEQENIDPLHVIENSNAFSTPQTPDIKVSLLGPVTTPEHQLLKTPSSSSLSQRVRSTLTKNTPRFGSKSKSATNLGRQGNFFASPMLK
# test_protocol: blockers of MgcRacGAP-driven Rac1 GTP hydrolysis – biochemical, ADP Hunter fluorescence, primary and confirmatory, confirmation (AID 624330)
# Assay type: functional
Activity calls are given as the source filed them.
property_label: IC50

COc1cccc(CN2CCC(C(=O)N3CCC(C)CC3)CC2)c1: 162 µM (active)
COc1cc(/C=C2\SC(=S)N(NC(=O)c3cccc(O)c3)C2=O)ccc1O: 54.8 µM (active)
O=S1(=O)N=C(Nc2ccc(O)cc2)c2ccccc21: 22.3 µM (active)
CC(C)(C)CC(C)(C)NCC(=O)Nc1c2c(nc3ccccc13)CCC2: 88.7 µM (active)
COc1cc(/C=N/NC(=O)c2ccccc2NS(=O)(=O)c2cccs2)ccc1O: 74.5 µM (active)
CCN(CC)c1ccc(/C=N/N2CCOCC2)cc1: 40.8 µM (active)
Cc1cc(-c2nnc(S)n2/N=C/c2ccc(Br)s2)[nH]n1: 91.6 µM (active)
CN(C)c1ccc(N/C=C/C(=O)C(C)(C)C)cc1: 7.98 µM (active)
O=C(c1ccc(F)cc1)N1CCN(C2CCCCC2)CC1: 196 µM (active)
COc1cccc(CNCc2ccccc2Br)c1OC: 145 µM (active)

Return reported IC50; argument: `O=S(=O)(O)c1ccc(O)c2cc(Nc3ccccc3)ccc12` 19.6 µM (active)

Please answer likewise for `Cc1ccc(NCCCCO)cc1C` 35.9 µM (active)

* * *

AC50 values, listed per item
# tested_target: UniProtKB P55789
# Sequence (P55789 whole entry): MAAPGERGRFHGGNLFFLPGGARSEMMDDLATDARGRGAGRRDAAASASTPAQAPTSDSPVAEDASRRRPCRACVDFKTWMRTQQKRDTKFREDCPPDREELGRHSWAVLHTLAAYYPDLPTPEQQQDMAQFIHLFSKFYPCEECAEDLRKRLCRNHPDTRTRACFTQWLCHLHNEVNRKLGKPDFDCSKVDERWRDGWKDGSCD
# test_protocol: ALR-catalysed DTT oxidation blockers – biochemical, H2O2 detection, luminescence, cherry-pick, dose response (AID 493248)
The source made the active and inactive calls.

The cases that follow already have their AC50 on record.
COc1ccc(N2CCN(C(=O)Cc3ccc(C)cc3)CC2)cc1: 5480 nM (active)
Cc1[nH]c2ccccc2c1N=Nc1cccc(C(=O)O)c1: 663 nM (active)
NC(=NO)c1ccccc1N1CCC(Cc2ccccc2)CC1: 27400 nM (active)

Fill blank: measured AC50 of the molecule `Cc1cc(C)nc(Nc2n[nH]c(-c3ccc(N)cc3)n2)n1` is ____. 311 nM (active)

What about `O=C(NNc1c2ccccc2nc2ccccc12)c1ccccc1O` ? 80 nM (active)

* * *

# test_protocol: NIH3T3 cell viability loss – ATP luminescence, mouse fibroblasts, counter-screen, dose response (AID 2010);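 note: cells exposed to compound for about 90 hours before reading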
# Format: functional, cell-based
Active and inactive are the calls of the source.
property_label: EC50

Consider the reported EC50 for these molecules:
CN1c2ccccc2N(C)C1(C)c1ccccc1: > 60 µM (not active)
CN(C)c1nc(NCc2ccccc2)nc(SCC(=O)Nc2ccc(Cl)c(Cl)c2)n1: > 60 µM (inconclusive)
CC(C)(C)n1nnnc1C(c1cccs1)N(Cc1ccc(Cl)cc1)CC1CCCO1 (stereo not given): > 60 µM (not active)

So what's the measured EC50 for this one? `Cc1ccc2nc(N(CCCN(C)C)C(=O)CN3C(=O)c4ccccc4C3=O)sc2c1` > 60 µM (not active)

What about `Cc1c(Cc2ccccc2)c(NCCN(C)C)n2c(nc3ccccc32)c1C#N` ? 34.1 µM (active)

* * *

# tested_target: Corticotropin-releasing factor receptor 2/Corticotropin-releasing factor-binding protein (Homo sapiens, UniProt P24387+Q13324)
# Sequence (Q13324 whole entry): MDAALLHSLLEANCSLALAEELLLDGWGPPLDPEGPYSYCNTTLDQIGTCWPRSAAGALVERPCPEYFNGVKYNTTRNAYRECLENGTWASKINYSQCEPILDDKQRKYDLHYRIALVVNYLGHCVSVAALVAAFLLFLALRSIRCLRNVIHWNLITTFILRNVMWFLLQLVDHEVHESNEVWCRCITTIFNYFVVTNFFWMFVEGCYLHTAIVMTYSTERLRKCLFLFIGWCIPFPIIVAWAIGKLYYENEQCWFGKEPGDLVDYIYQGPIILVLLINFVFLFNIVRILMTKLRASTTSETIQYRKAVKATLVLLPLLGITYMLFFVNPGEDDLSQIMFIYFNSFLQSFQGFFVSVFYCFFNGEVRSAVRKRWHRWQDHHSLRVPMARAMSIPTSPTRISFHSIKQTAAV
# Sequence (P24387 whole entry): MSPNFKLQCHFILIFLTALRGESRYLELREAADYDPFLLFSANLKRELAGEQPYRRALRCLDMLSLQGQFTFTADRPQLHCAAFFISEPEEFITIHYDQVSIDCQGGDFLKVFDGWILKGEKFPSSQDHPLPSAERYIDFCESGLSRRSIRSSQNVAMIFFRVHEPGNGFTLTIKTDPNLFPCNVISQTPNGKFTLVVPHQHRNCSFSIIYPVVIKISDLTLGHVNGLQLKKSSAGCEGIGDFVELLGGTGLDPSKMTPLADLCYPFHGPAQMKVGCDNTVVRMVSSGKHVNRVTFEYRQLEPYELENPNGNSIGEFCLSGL
# test_protocol: activators of CRF receptor 2 with binding protein – uHTS hits, confirmation (AID 602473)
# Assay type: functional
# experimental_setup: read-out: EC50_Mean
Active and inactive are the calls of the source.
In this exercise, the only acceptable responses are yes (active), no (inactive)

Answered examples (5):
O=C(Nc1cccc(F)c1)c1coc(=O)c(Br)c1: no
Cc1c(NS(=O)(=O)c2ccccc2)ccc([N+](=O)[O-])c1Cl: no
COc1cc(CCc2ccccc2)c(C(=O)O)c(O)c1C/C=C(/C)CCC=C(C)C: no
Cc1cc([N+](=O)[O-])ccc1NCc1ccc2c(c1)OCCO2: no
CC1(c2ccc(OC(F)F)cc2)NC(=O)N(CC(=O)c2ccc3c(c2)OCO3)C1=O (configuration not stated): yes

Short answer needed: outcome of this test for `O=C(CCCNC1=NS(=O)(=O)c2ccccc21)OCC(=O)c1ccc(F)c(F)c1` ? yes

* * *

# tested_target: Eukaryotic translation initiation factor 4E (Mus musculus, UniProt P63073)
# Sequence (P63073 whole entry): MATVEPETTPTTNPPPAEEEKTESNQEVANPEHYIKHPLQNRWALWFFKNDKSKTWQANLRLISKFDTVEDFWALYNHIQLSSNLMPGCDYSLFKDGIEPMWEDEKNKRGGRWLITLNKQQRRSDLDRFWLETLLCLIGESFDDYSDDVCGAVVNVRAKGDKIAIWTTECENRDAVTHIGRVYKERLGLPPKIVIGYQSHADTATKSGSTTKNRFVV
# test_protocol: blockers of eIF4G binding by eIF4E – biochemical, TR-FRET, dose response (AID 855);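 note: potency for disrupting eIF4E binding to eIF4GI seen as loss of FRET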
# Assay type: functional
The source made the active and inactive calls.
Your response should consist of one outcome taken from YES = active, NO = inactive

Check out these entries, answers already filled in.
O=c1c2ccccc2nc2n1CCC2: YES
COc1ccccc1CNc1nc(-c2cc(C)n(C)c2C)cs1: NO
O=C(Oc1ccc(=O)n(-c2ccccc2)n1)c1cccc(Cl)c1: NO
Cc1c(OC(=O)c2ccc([N+](=O)[O-])cc2)c2c(c[n+]1C)COC(C)(C)OC2: NO

For this compound, state the assay outcome: `Cc1cc(NC(=O)c2noc3c2CCc2ccccc2-3)n(-c2ccccc2)n1` NO

* * *

# tested_target: Heat shock factor protein 1 (Mus musculus)
# Sequence (P38532 whole entry): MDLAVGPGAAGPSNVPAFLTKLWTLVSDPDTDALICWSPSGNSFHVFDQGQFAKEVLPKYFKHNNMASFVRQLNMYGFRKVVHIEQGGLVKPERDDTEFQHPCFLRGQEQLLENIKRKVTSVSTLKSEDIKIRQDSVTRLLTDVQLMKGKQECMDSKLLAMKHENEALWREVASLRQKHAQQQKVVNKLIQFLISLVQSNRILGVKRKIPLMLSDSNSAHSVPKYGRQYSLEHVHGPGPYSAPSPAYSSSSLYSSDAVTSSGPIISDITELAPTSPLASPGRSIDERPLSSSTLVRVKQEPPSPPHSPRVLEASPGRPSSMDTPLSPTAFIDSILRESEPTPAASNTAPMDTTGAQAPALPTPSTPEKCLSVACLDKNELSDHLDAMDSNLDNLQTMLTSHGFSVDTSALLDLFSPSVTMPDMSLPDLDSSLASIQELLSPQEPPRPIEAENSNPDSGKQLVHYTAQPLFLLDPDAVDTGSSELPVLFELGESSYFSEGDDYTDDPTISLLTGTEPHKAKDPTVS
# test_protocol: decrease of HSF1-responsive luciferase luminescence – cell-based, NIH3T3, dose retest, confirmation (AID 2382);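 note: NIH3T3 fibroblasts with HSF1-driven luciferase reporter stressed by proteasome inhibitor MG132; luminescence from HSF1-driven luciferase expression after 8 hours of MG132 stress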
# Type: functional
Activity calls are given as the source filed them.
Below: a set of entries, each annotated with reported EC50.

Example entries and their recorded answers appear below.
Nc1ccc(C23CC4CC(CC(O)(C4)C2)C3)cc1: 41.2 µM (active)
CCN1CC2([N+](=O)[O-])C=CC(=O)C([N+](=O)[O-])(C1)C2CC(=O)c1ccccc1 (stereo not drawn): > 195 µM (not active)
CN(C)c1ccc(CNc2ccc3c(c2)ncn3C(C)(C)C)cc1: 169 µM (active)

Look up EC50: `CCOC(=O)Cn1c(COc2ccccc2OC)[n+](C)c2ccccc21` > 195 µM (not active)

Same again, this time with `COc1ccc2nc(Cl)c(C#N)cc2c1` > 195 µM (not active)

Moving on to the next compound: Cc1nnsc1[S+]([O-])c1ccc(Cl)c(Cl)c1 (stereo not drawn) 12.4 µM (active)

Can you handle `COc1ccc(Cl)cc1NC(=O)CN(C)C(=O)Cn1cnc2c1c(=O)n(C)c(=O)n2C` next? > 195 µM (not active)

Ok, now `CCN(Cc1ccccc1)C(=O)C1CCN(Cc2sccc2C)CC1` > 195 µM (not active)

Now the compound `CC(C)c1ccc(-c2nnn(CCC(=O)O)n2)cc1` < 0.16 µM (active)

Can you handle `Cn1c(NC(=O)c2ccccc2NC(=O)C(C)(C)C)nc2ccccc21` next? > 195 µM (not active)

Param item: `CCn1c(=O)c2c3c(sc2n2cnnc12)CCC3` > 195 µM (not active)

Same for `O=C(CCCCn1c(=O)[nH]c2ccsc2c1=O)NCc1cccnc1` > 195 µM (not active)

Next up: `CC1CCN(CC(=O)NC2CCCCC2)CC1` > 195 µM (not active)
